system.under.test: hP2X7 (Homo sapiens, UniProt Q99572)
Construct: expressed in transfected cells; host or cells: HEK-293, stably transfected (gift of E. Adinolfi's group, Ferrara University)
Sequence (Q99572 1-595): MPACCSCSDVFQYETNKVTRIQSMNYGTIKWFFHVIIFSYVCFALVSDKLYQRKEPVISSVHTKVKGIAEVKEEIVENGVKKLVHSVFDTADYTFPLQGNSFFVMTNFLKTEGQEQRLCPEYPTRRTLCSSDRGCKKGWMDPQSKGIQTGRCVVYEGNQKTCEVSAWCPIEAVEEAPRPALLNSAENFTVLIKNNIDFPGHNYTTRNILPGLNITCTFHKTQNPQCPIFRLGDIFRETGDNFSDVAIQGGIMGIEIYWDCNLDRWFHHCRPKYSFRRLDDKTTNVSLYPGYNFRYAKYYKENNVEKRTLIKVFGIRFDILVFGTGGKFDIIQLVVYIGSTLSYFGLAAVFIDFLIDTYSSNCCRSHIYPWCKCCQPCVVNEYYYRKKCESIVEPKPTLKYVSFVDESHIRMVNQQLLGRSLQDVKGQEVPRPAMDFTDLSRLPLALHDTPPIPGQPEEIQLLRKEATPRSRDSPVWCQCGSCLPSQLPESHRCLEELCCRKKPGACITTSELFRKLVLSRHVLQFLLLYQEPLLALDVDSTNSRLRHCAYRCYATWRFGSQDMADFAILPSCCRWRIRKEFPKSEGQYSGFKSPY
assay.info: Membrane potential assay with the blue dye (assay optimization)
Type: cell-based
experimental.parameters: read-out: ATP EC50
measurement.kind: pEC50
// scale note: pEC50 = -log10(conc_M); give the bare number

Nc1ncnc2c1ncn2[C@@H]1O[C@H](COP(=O)(O)OP(=O)(O)OP(=O)(O)O)[C@@H](O)[C@H]1O [ATP, reference compound] has a reported pEC50 of 2.69

----------
system.under.test: hP2X7 (Homo sapiens, UniProt Q99572)
Construct: expressed in transfected cells; host or cells: HEK-293, stably transfected (gift of E. Adinolfi's group, Ferrara University)
Sequence (Q99572 1-595): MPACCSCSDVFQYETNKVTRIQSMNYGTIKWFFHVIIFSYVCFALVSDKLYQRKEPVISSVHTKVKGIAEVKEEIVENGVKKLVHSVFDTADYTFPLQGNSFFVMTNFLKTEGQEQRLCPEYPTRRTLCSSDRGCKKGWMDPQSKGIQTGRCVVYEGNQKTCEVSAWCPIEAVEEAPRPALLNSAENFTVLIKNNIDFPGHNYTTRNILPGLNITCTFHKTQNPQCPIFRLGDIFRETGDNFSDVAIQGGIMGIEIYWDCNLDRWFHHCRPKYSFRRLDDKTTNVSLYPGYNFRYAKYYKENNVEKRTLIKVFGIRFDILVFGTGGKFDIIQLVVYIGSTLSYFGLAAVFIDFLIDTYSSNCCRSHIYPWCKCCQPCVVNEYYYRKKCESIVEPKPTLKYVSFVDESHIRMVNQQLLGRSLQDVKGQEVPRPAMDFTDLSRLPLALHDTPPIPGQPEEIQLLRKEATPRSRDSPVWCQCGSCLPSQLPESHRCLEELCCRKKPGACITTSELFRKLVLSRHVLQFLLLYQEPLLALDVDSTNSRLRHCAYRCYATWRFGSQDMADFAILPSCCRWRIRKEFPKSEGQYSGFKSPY
assay.info: Membrane Potential Red (MPR) dye assay, 1321 N1 cells stably transfected with hP2X7
Type: cell-based
experimental.parameters: compound 10 μM, 700 μM ATP
measurement.kind: activity in MPR screen, hP2X7-induced membrane depolarization

| molecule | result |
| --- | --- |
| O=C(NCc1ccccc1)NC1(C(=O)NCc2ccccc2Cn2ccnc2)CCCC1 [Compound 8] | did not also block |
| Cc1nn(-c2ccccc2)c(C)c1NC(=O)NCc1ccccc1Cn1cccn1 [Compound 7] | did not also block |
| COc1cccc(NC(=O)CSc2ccccc2C(=O)NCc2cn3ccccc3n2)c1 [Compound 6] | did not also block |

----------
system.under.test: hP2X7 (Homo sapiens, UniProt Q99572)
Construct: expressed in transfected cells; host or cells: HEK-293, stably transfected (gift of E. Adinolfi's group, Ferrara University)
assay.info: YO-PRO 1 dye uptake assay, HEK-293 cells stably transfected with hP2X7
Assay type: cell-based
experimental.parameters: Table 1; table names no assay; values of 2 and 9 are from YO-PRO 1 dye uptake in hP2X7 HEK-293 cells; read-out: IC50
I'd appreciate it if you could supply log10 of IC50 values for the items below.
Answers are given as log10 of IC50 in µM.

The value of log10 of IC50 measured for the compound "Cc1nn(-c2ccccc2)c(C)c1NC(=O)NCc1ccccc1Cn1cccn1" turned out to be 0.63

The value of log10 of IC50 measured for the compound "O=C(NCCc1ccccc1)NC(Cc1ccc2c(c1)OCO2)Cc1ccc2c(c1)OCO2" turned out to be 0.27

For record "O=C(NCc1ccccc1)NC1(C(=O)NCc2ccccc2Cn2ccnc2)CCCC1" the listed log10 of IC50 is 0.61

# compound "O=C(CSc1ccccc1C(=O)Nc1ccnn1Cc1cccnc1)Nc1ccc2c(c1)OCO2" ; its log10 of IC50 = 0.83

Please fill in: log10 of IC50 reported for "COc1cccc(NC(=O)CSc2ccccc2C(=O)NCc2cn3ccccc3n2)c1" = 1.32

----------
system.under.test: hP2X7 (Homo sapiens)
Construct: expressed in transfected cells; host or cells: HEK-293, stably transfected (gift of E. Adinolfi's group, Ferrara University)
Sequence (Q99572 1-595): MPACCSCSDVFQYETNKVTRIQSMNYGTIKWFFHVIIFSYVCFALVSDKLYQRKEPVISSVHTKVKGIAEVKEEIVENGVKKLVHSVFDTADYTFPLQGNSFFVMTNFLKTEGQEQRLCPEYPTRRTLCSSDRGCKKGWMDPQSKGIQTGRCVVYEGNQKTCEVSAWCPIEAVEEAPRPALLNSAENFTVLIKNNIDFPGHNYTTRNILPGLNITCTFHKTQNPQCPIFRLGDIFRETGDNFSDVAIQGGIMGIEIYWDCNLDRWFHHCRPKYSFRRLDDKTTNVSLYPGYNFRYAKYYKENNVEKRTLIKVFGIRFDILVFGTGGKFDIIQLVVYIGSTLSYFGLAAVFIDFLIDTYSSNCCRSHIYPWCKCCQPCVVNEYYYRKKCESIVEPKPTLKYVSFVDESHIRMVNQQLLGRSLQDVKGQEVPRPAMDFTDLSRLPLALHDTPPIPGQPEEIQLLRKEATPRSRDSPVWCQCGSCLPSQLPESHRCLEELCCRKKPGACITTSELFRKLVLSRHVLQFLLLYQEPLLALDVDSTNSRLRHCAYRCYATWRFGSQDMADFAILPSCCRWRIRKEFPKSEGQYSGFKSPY
assay.info: YO-PRO 1 dye uptake assay, 1321 N1 cells stably transfected with hP2X7
Type: cell-based
experimental.parameters: YO-PRO 1 uptake, 1321 N1 hP2X7 cells, ATP 1 μM to 10 mM
measurement.kind: pEC50
The read-out pEC50 is expressed as -log10 of concentration in moles per litre.

pEC50 reported for this compound Nc1ncnc2c1ncn2[C@@H]1O[C@H](COP(=O)(O)OP(=O)(O)OP(=O)(O)O)[C@@H](O)[C@H]1O [ATP, reference compound] : 3.16
